The reported measurements were obtained from patent EP2283839A1.

# Tested on: platelets isolated from human blood
# Run description: Measurement of platelet aggregation (turbidimetric method, aggregometer)
# Format: cell-based
# Applied conditions: 1 µM triene molecules; Collagen-induced platelet aggregation; measured after 4 min
Marks after values point to notes of the source that are not given here.
Listed next: entries and their corresponding % inhibition.

{"Molecule": "CCCCC[C@H](O)/C=C/C=C\\C=C\\[C@@H](O)CCCCCCCCC(=O)O", "Measurement target": "platelets isolated from human blood", "% inhibition": "63.8** %"}
{"Molecule": "CCCCC/C=C\\C[C@H](O)/C=C/C=C/C=C\\[C@@H](O)CCCC(=O)O [12-epi LTB4]", "Measurement target": "platelets isolated from human blood", "% inhibition": "3.9%"}
{"Molecule": "CCCCC/C=C\\C[C@@H](O)/C=C/C=C/C=C\\[C@@H](O)CCCC(=O)O", "Measurement target": "platelets isolated from human blood", "% inhibition": "3.4%"}

###

# System: platelets isolated from human blood
# Run description: Measurement of platelet aggregation (turbidimetric method, aggregometer)
# Type: cell-based
# Applied conditions: 1 µM triene molecules; Collagen-induced platelet aggregation; measured after 4 min
Quantity measured: % inhibition (%)

{"Compound": "CCCCC/C=C\\C[C@@H](O)/C=C/C=C/C=C/[C@@H](O)CCCC(=O)O [6-trans LTB4]", "Value measured": 8.1}
{"Compound": "CCCCCCCC[C@H](O)/C=C/C=C/C=C\\[C@@H](O)CCCC(=O)O [12-epi LTB3]", "Value measured": 7.4}
{"Compound": "CCCCCCCC[C@@H](O)/C=C/C=C/C=C\\[C@@H](O)CCCC(=O)O", "Value measured": 5.0}
{"Compound": "CCCCC/C=C\\C[C@H](O)/C=C/C=C/C=C/[C@@H](O)CCCC(=O)O [6trans-12-epi LTB4]", "Value measured": 1.8}

###

# Tested on: platelets isolated from human blood
# Run description: Measurement of platelet aggregation (turbidimetric method, aggregometer)
# Assay type: cell-based
# Applied conditions: 1 µM triene molecules; Collagen-induced platelet aggregation; measured after 4 min
# Description: Aggregation tests were performed on platelets isolated from human blood in presence or not of different dihydroxylated triene compounds with different double bond geometry: ZEE, EZE or ZZZ. Platelet aggregation was determined by a standard turbidimetric method using a dual aggregometer (CHRONO-LOG, USA). The levels of light transmission were calibrated as 0 % for a platelet suspension and 100% for the Tyrode/HEPES solution (pH 7.35). […]
Marks after values point to notes of the source that are not given here.

{"Molecule": "CC/C=C\\C[C@H](O)/C=C/C=C\\C=C\\[C@H](O)C/C=C\\C/C=C\\CCC(=O)O [10(R),17(S)-diOH-22:6]", "% inhibition": "70.0** %"}
{"Molecule": "CCCCC/C=C\\C[C@H](O)/C=C/C=C\\C=C\\[C@@H](O)CCCC(=O)O [5(S),12(S)-diHETE]", "% inhibition": "74.9** %"}
{"Molecule": "CCCCC[C@H](O)/C=C/C=C\\C=C\\[C@@H](O)C/C=C\\CCCC(=O)O [8(S),15(S)-diHETE]", "% inhibition": "66.5** %"}
{"Molecule": "CC/C=C\\C[C@H](O)/C=C/C=C\\C=C\\[C@@H](O)C/C=C\\C/C=C\\CCC(=O)O", "% inhibition": "56.1** %"}
